Would you mind telling me the reported self-splicing fitness (ln) of each entry?
assay: self-splicing fitness, log relative to wild type (ln ratio); higher = more splicing; Tetrahymena group I intron in knt gene, E. coli kanamycin selection, DiMSum; sequences stand for … in CUCUCU…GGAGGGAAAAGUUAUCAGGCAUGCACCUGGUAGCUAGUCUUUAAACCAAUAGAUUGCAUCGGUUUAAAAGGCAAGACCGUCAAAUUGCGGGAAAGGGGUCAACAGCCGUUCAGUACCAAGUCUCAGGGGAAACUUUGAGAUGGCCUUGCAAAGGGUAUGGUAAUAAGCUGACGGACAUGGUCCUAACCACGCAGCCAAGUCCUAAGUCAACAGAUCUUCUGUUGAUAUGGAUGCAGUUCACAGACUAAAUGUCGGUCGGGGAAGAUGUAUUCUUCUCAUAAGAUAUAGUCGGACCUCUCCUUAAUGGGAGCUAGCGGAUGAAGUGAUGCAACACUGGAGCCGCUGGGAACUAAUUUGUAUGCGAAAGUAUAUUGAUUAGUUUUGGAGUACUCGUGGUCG; conditions: 30 °C;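 further: selection with 25 µg/mL kanamycin versus none on LB agar overnight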

q: Given "CUUGAGCAAUAUUACGGGUU" , state its recorded self-splicing fitness (ln).
a: -2.91

q: Further, for "AAGCAGCAAUAUUACGUUGG" ?
a: -3.77

q: Further, for "AACCAGCAAUAUUACGAGAG" ?
a: -3.44

q: Further, for "GACAAGCAAUAUUACGCCAU" ?
a: -3.44

q: Further, for "CCAGAGCAAUAUUACGGCAG" ?
a: -1.8

q: Further, for "AUGUAGCAAUAUUACGGCCC" ?
a: -0.72

q: Further, for "CGCGAGCAAUAUUACGUUUU" ?
a: -4.56

q: Further, for "GUAAAGCAAUAUUACGUCGG" ?
a: -2.85

q: Further, for "AAUCAGCAAUAUUACGCAUA" ?
a: -0.272

q: Further, for "UUCGAGCAAUAUUACGUUUU" ?
a: -3.49

q: Further, for "UUGCAGCAAUAUUACGAGUU" ?
a: -4.24

q: Further, for "CGGGAGCAAUAUUACGACGG" ?
a: -1.4

q: Further, for "CUUGAGCAAUAUUACGGUUG" ?
a: -2.28

q: Further, for "GUAAAGCAAUAUUACGAAAA" ?
a: -1.52

q: Further, for "ACCAAGCAAUAUUACGUUAA" ?
a: -3.17

q: Further, for "ACCUAGCAAUAUUACGAAGU" ?
a: -3.53

q: Further, for "CUCCAGCAAUAUUACGAAUU" ?
a: -3.27

q: Further, for "UAUAAGCAAUAUUACGCCCG" ?
a: 0.0737

q: Further, for "CCGUAGCAAUAUUACGUUGG" ?
a: -4.39

q: Further, for "UACUAGCAAUAUUACGUAUG" ?
a: -3.59

q: Further, for "GCAGAGCAAUAUUACGUUUA" ?
a: -2.56

q: Further, for "AAUGAGCAAUAUUACGAGCU" ?
a: -3.15

q: Further, for "AGUCAGCAAUAUUACGAUAG" ?
a: -1.12

q: Further, for "UUCUAGCAAUAUUACGGUGU" ?
a: -3.4

q: Further, for "CAUGAGCAAUAUUACGAAGG" ?
a: -3.17

q: Further, for "AAGGAGCAAUAUUACGGUCG" ?
a: -2.96

q: Further, for "UGAAAGCAAUAUUACGCUUA" ?
a: -1.26

q: Further, for "CCUCAGCAAUAUUACGUUAA" ?
a: -2.89

q: Further, for "GUGAAGCAAUAUUACGCCAG" ?
a: -1.09

q: Further, for "ACCAAGCAAUAUUACGCCUC" ?
a: -2.34

q: Further, for "AUAUAGCAAUAUUACGUGCG" ?
a: -0.942

q: Further, for "UUGAAGCAAUAUUACGACCU" ?
a: 0.0483

q: Further, for "UACGAGCAAUAUUACGGGUG" ?
a: -1.88

q: Further, for "CCCCAGCAAUAUUACGACUC" ?
a: -2.97
